Known Inhibition of a selection of compounds
system: Cryptococcus neoformans; settings: Concentration 32 ug.mL-1; ASSAY_TEST Inhibition of Fungal Growth; detection method Resazurin; Absorption (OD600-OD570); plate type 384well; NBS; CORNING #3640
Description: Antifungal activity against Cryptococcus neoformans H99 ATCC 208821 (CO-ADD:FG_002); MIC in YNB media using NBS plates, by Resazurin OD(600-570)
Entries with a potency or affinity are not part of this list.
RESULT TYPE: Inhibition (%)

{"STRUCTURE NOTATION": "O=c1c2sccc2n2c(=O)n(Cc3cccc(Br)c3)nc2n1Cc1cccs1", "RESULT TYPE": "Inhibition", "OBSERVED": -21.53}
{"STRUCTURE NOTATION": "COc1ccc(-c2cc3c4nnc(SCC(=O)Nc5ccccc5C(F)(F)F)n4ccn3n2)cc1", "RESULT TYPE": "Inhibition", "OBSERVED": -13.07}
{"STRUCTURE NOTATION": "CSc1ccc(CNC(=O)CCc2nnc3c(N4CCCCC4)nc4ccccc4n23)cc1", "RESULT TYPE": "Inhibition", "OBSERVED": -30.87}
{"STRUCTURE NOTATION": "CC(C)c1nnc2c(=O)n(CC(=O)Nc3cccc(C#N)c3)c3ccccc3n12", "RESULT TYPE": "Inhibition", "OBSERVED": -33.67}
{"STRUCTURE NOTATION": "Cc1ccc(NC(=O)Cn2nc3c(Sc4cccc(F)c4)nccn3c2=O)cc1F", "RESULT TYPE": "Inhibition", "OBSERVED": -11.09}

====

test system: Cryptococcus neoformans; conditions: Concentration 32 ug.mL-1; ASSAY_TEST Inhibition of Fungal Growth; detection method Resazurin; Absorption (OD600-OD570); plate type 384well; NBS; CORNING #3640
Entries with a potency or affinity are not part of this list.
So basically, if Inhibition comes in under -10% it's TRUE, and if it's -10% or more it's FALSE.

{"COMPOUND": "O=C(CSc1nnc2c(=O)n(-c3ccccc3)ccn12)Nc1ccc2c(c1)OCO2", "SUBJECT OF TEST": "Cryptococcus neoformans", "LABEL CLASS": "TRUE"}
{"COMPOUND": "CCc1cccc(NC(=O)Cn2nc3c(Sc4ccc(C)cc4C)nccn3c2=O)c1", "SUBJECT OF TEST": "Cryptococcus neoformans", "LABEL CLASS": "TRUE"}
{"COMPOUND": "COc1ccc(C(C)NC(=O)CCc2nnc3ccc(-c4ccc(C)cc4)nn23)cc1OC (stereo not given)", "SUBJECT OF TEST": "Cryptococcus neoformans", "LABEL CLASS": "TRUE"}
{"COMPOUND": "COc1ccc(NC(=O)Cn2nc3c(N4CCOCC4)nccn3c2=O)cc1Cl", "SUBJECT OF TEST": "Cryptococcus neoformans", "LABEL CLASS": "FALSE"}
{"COMPOUND": "CCc1cccc(NC(=O)Cn2nc3ccc(SC4CCCCC4)nn3c2=O)c1", "SUBJECT OF TEST": "Cryptococcus neoformans", "LABEL CLASS": "TRUE"}
{"COMPOUND": "Cc1ccc(NC(=O)Cn2nc3c(Sc4ccccc4)nc4ccccc4n3c2=O)cc1C", "SUBJECT OF TEST": "Cryptococcus neoformans", "LABEL CLASS": "FALSE"}
{"COMPOUND": "Cc1cc(C)c(NC(=O)Cn2nc3ccc(-c4ccc(C)c(C)c4)nn3c2=O)c(C)c1", "SUBJECT OF TEST": "Cryptococcus neoformans", "LABEL CLASS": "TRUE"}
{"COMPOUND": "CCOC(=O)c1ccc(NC(=O)Cn2nc3c(N4CCOCC4)nccn3c2=O)cc1", "SUBJECT OF TEST": "Cryptococcus neoformans", "LABEL CLASS": "TRUE"}
{"COMPOUND": "Cc1cccc(Oc2nccn3c(=O)n(CC(=O)N4CCN(c5ccccc5F)CC4)nc23)c1C", "SUBJECT OF TEST": "Cryptococcus neoformans", "LABEL CLASS": "TRUE"}
{"COMPOUND": "COc1ccc(OC)c(NC(=O)Cn2nc3c4cc(-c5ccc(F)cc5)nn4ccn3c2=O)c1", "SUBJECT OF TEST": "Cryptococcus neoformans", "LABEL CLASS": "FALSE"}
{"COMPOUND": "Cc1cccc(NC(=O)Cn2c(=O)c3nnc(C(C)C)n3c3ccccc32)c1", "SUBJECT OF TEST": "Cryptococcus neoformans", "LABEL CLASS": "TRUE"}
{"COMPOUND": "COc1ccc(-c2cc3c4nnc(SCC(=O)Nc5ccccc5Cl)n4ccn3n2)cc1", "SUBJECT OF TEST": "Cryptococcus neoformans", "LABEL CLASS": "TRUE"}
{"COMPOUND": "Cc1ccc(NC(=O)Cn2nc3ccc(SCc4ccc(Cl)cc4)nn3c2=O)cc1C", "SUBJECT OF TEST": "Cryptococcus neoformans", "LABEL CLASS": "TRUE"}
{"COMPOUND": "COc1ccc(CCn2c(=O)c3sccc3n3c(=O)n(Cc4c(F)cccc4Cl)nc23)cc1OC", "SUBJECT OF TEST": "Cryptococcus neoformans", "LABEL CLASS": "TRUE"}
{"COMPOUND": "COc1cccc(Sc2nc3ccccc3n3c(=O)n(CC(=O)Nc4ccc(C)c(C)c4)nc23)c1", "SUBJECT OF TEST": "Cryptococcus neoformans", "LABEL CLASS": "FALSE"}
{"COMPOUND": "Cc1ccc(NC(=O)Cn2nc3ccc(SC4CCCCC4)nn3c2=O)c(Cl)c1", "SUBJECT OF TEST": "Cryptococcus neoformans", "LABEL CLASS": "TRUE"}
{"COMPOUND": "COc1cc(NC(=O)Cn2nc3ccc(SC(C)C)nn3c2=O)cc(OC)c1", "SUBJECT OF TEST": "Cryptococcus neoformans", "LABEL CLASS": "FALSE"}
{"COMPOUND": "O=c1n(Cc2nc(-c3ccc(Br)cc3)no2)nc2ccc(-c3ccccc3)nn12", "SUBJECT OF TEST": "Cryptococcus neoformans", "LABEL CLASS": "TRUE"}
{"COMPOUND": "O=C(Cn1nc2c3c4c(sc3ncn2c1=O)CCCC4)NCc1ccccc1Cl", "SUBJECT OF TEST": "Cryptococcus neoformans", "LABEL CLASS": "FALSE"}
{"COMPOUND": "Cc1ccc(-c2ccc3nn(CC(=O)Nc4ccc(Br)cc4)c(=O)n3n2)cc1C", "SUBJECT OF TEST": "Cryptococcus neoformans", "LABEL CLASS": "TRUE"}
{"COMPOUND": "O=c1n(Cc2ccccc2F)nc2ccc(S(=O)(=O)N3CCCCCC3)cn12", "SUBJECT OF TEST": "Cryptococcus neoformans", "LABEL CLASS": "FALSE"}
{"COMPOUND": "CCOC(=O)c1ccccc1NC(=O)Cn1nc2ccc(C(=O)Nc3ccc(OC)cc3)cn2c1=O", "SUBJECT OF TEST": "Cryptococcus neoformans", "LABEL CLASS": "FALSE"}
{"COMPOUND": "CSc1cccc(NC(=O)Cn2nc3ccc(-c4ccc(C)c(C)c4)nn3c2=O)c1", "SUBJECT OF TEST": "Cryptococcus neoformans", "LABEL CLASS": "TRUE"}
{"COMPOUND": "Cc1ccc(NC(=O)Cn2nc3ccc(C(=O)NCc4ccccc4)cn3c2=O)c(Br)c1", "SUBJECT OF TEST": "Cryptococcus neoformans", "LABEL CLASS": "TRUE"}
{"COMPOUND": "COc1ccc(Cl)cc1NC(=O)CSc1nc2ccccc2n2cnnc12", "SUBJECT OF TEST": "Cryptococcus neoformans", "LABEL CLASS": "TRUE"}
{"COMPOUND": "COc1ccc(CNC(=O)Cn2nc3c(Oc4ccccc4C)nccn3c2=O)cc1", "SUBJECT OF TEST": "Cryptococcus neoformans", "LABEL CLASS": "FALSE"}
{"COMPOUND": "COc1ccc(N(Cc2cccc(Cl)c2)S(=O)(=O)c2ccc3nncn3c2)cc1", "SUBJECT OF TEST": "Cryptococcus neoformans", "LABEL CLASS": "FALSE"}
{"COMPOUND": "Cc1nnc2c(=O)n(CC(=O)Nc3cccc(Br)c3)c3ccccc3n12", "SUBJECT OF TEST": "Cryptococcus neoformans", "LABEL CLASS": "TRUE"}
{"COMPOUND": "COc1ccc(-c2cc3c4nnc(SCC(=O)Nc5cccc(Cl)c5C)n4ccn3n2)cc1", "SUBJECT OF TEST": "Cryptococcus neoformans", "LABEL CLASS": "TRUE"}
{"COMPOUND": "COc1cccc(-n2ccn3c(SCc4ccc(C)cc4)nnc3c2=O)c1", "SUBJECT OF TEST": "Cryptococcus neoformans", "LABEL CLASS": "TRUE"}
{"COMPOUND": "COc1cccc(CN(c2ccccc2)S(=O)(=O)c2ccc3nncn3c2)c1", "SUBJECT OF TEST": "Cryptococcus neoformans", "LABEL CLASS": "FALSE"}
{"COMPOUND": "CCOC(=O)c1cccc(NC(=O)Cn2nc3c4cc(-c5ccc(C)c(C)c5)nn4ccn3c2=O)c1", "SUBJECT OF TEST": "Cryptococcus neoformans", "LABEL CLASS": "TRUE"}
{"COMPOUND": "CCc1nnc2c(SCC(=O)Nc3cc(Cl)ccc3OC)nc3ccccc3n12", "SUBJECT OF TEST": "Cryptococcus neoformans", "LABEL CLASS": "FALSE"}
{"COMPOUND": "Cc1cccc(C)c1NC(=O)CSc1nnc2c3cc(-c4ccccc4)nn3ccn12", "SUBJECT OF TEST": "Cryptococcus neoformans", "LABEL CLASS": "FALSE"}
{"COMPOUND": "CCN(C(=O)CSc1nnc2c3cc(-c4ccc(OC)cc4)nn3ccn12)c1ccccc1", "SUBJECT OF TEST": "Cryptococcus neoformans", "LABEL CLASS": "FALSE"}
{"COMPOUND": "COc1cccc(-n2ccn3c(SCC(=O)NCc4ccc(C)cc4)nnc3c2=O)c1", "SUBJECT OF TEST": "Cryptococcus neoformans", "LABEL CLASS": "FALSE"}
{"COMPOUND": "Cc1ccc(-c2ccc3nnc(CCC(=O)NCc4ccc(C(F)(F)F)cc4)n3n2)cc1C", "SUBJECT OF TEST": "Cryptococcus neoformans", "LABEL CLASS": "FALSE"}
